# assayed target: IDO1 in Hela cancer cells (Homo sapiens, UniProt P14902)
# Construct: endogenous in cells
# Sequence (P14902 whole entry): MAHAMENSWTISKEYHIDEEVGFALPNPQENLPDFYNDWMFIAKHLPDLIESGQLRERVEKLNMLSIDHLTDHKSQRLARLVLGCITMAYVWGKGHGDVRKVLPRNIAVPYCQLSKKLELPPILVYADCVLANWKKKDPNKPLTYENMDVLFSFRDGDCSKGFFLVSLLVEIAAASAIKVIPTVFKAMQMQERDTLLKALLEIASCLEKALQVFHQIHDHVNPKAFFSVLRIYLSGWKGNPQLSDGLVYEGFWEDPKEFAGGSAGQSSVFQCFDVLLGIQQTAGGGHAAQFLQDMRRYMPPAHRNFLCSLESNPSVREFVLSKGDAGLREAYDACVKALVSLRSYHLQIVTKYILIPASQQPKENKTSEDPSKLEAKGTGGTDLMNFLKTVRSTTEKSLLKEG
# test name: IDO1 Cellular Assay (kynurenine production in IFN-γ stimulated Hela cancer cells)
# condition context: human IFN-γ 50 ng/mL, 48 hours incubation, kynurenine at 490 nm
value type: IC50

Example results:
[[record]]
compound = "OC1(c2cc(Cl)cc3[nH]ncc23)CC1 [Example 11]"
value_type = "IC50"
value_reported = "> 5 µM"

[[record]]
compound = "CC(=O)N1C[C@@H]2CN(c3cc(Cl)cc4cncn34)C[C@@H]2C1(C)C (racemic) [Example 43]"
value_type = "IC50"
value_reported = "> 5 µM"

[[record]]
compound = "CC1(C)C2CN(c3cc(Cl)cc4[nH]ncc34)CC2CN1S(C)(=O)=O (single isomer, unassigned) [Example 1b]"
value_type = "IC50"
value_reported = "> 5 µM"

[[record]]
compound = "CS(=O)(=O)N1C[C@@H]2C[C@@](O)(c3cc(Cl)cc4[nH]ncc34)C[C@@H]2C1 [Example 2]"
value_type = "IC50"
value_reported = "0.5 to 1 µM"

[[record]]
compound = "CC(=O)N[C@H]1[C@@H]2C[C@@](O)(c3cc(Cl)cc4cn[nH]c34)C[C@@H]21 [Example 108]"
value_type = "IC50"
value_reported = "> 5 µM"

[[record]]
compound = "O=C(c1ccncc1)N1C[C@@H]2C[C@@](O)(c3cc(Cl)cc4[nH]ncc34)C[C@@H]2C1 [Example 40]"
value_type = "IC50"
value_reported = "> 5 µM"


Now let's try a different one.
// query I'm curious: which IC50 was measured for CC(=O)N[C@H]1C[C@@H]2C[C@@](O)(c3cc(Cl)cc4[nH]ncc34)C[C@@H]2C1 [Example 167] tested on IDO1 in Hela cancer cells (Homo sapiens, UniProt P14902)?
// result > 5 µM

* * *

Parameter: pIC50. Scope: all listed entries.
# assayed target: TDO2 in A172 cancer cells (Homo sapiens, UniProt P48775)
# Construct: endogenous in cells
# Sequence (P48775 whole entry): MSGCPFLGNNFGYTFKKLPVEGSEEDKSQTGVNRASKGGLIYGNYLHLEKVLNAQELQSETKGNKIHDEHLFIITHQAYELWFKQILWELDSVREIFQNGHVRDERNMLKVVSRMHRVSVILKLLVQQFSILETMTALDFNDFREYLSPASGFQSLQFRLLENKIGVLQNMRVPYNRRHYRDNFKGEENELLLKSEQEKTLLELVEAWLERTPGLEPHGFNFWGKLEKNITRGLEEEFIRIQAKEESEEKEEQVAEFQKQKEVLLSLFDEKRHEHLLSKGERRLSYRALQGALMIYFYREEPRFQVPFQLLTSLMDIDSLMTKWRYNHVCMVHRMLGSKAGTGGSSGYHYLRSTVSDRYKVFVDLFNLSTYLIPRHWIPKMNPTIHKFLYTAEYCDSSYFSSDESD
# test name: TDO2 Cellular Assay (kynurenine production in A172 cancer cells)
# condition context: L-Trp 1 mM, 24 hours incubation, kynurenine at 490 nm
pIC50: −log10 of the molar value.

Example results:
[[record]]
smiles_data = "O=C(N[C@H]1[C@@H]2C[C@@](O)(c3cc(Cl)cc4[nH]ncc34)C[C@@H]21)c1cnon1"
value_reported = "≥ 6.30"

[[record]]
smiles_data = "O=C(C1CCCC1)N1C[C@@H]2C[C@@](O)(c3cc(Cl)cc4[nH]ncc34)C[C@@H]2C1"
value_reported = "≥ 6.30"

[[record]]
smiles_data = "O=C(N[C@H]1[C@@H]2C[C@@](O)(c3cc(Cl)cc4cn[nH]c34)C[C@@H]21)c1ccncc1"
value_reported = "5.30 to 6.00"


// query I am curious: what pIC50 value has been reported for O=C(N[C@H]1[C@@H]2C[C@@](O)(c3cc(Cl)cc4[nH]ncc34)C[C@@H]21)c1cc(F)cc(Cl)c1 ?
// result ≥ 6.30

* * *

# assayed target: Recombinant human IDO1 (Homo sapiens, UniProt P14902)
# Sequence (P14902 whole entry): as the sequence (P14902 whole entry) above
# test name: IDO1 Enzymatic Assay
# condition context: recombinant human IDO1 40 nM, L-tryptophan 100 μM, 40 min room temperature, N′-formylkynurenine absorbance 321 nm; read-out: IDO1 biochemical activity*
pIC50: −log10 of the molar value.
value type: pIC50

Example results:
[[record]]
molecule = "CC(=O)N1CCCC2CN(c3cc(Cl)cc4[nH]ncc34)CC21 (stereo not drawn)"
value_reported = "< 6.00"

[[record]]
molecule = "CS(=O)(=O)N[C@@H]1[C@@H]2CN(c3cc(Cl)cc4[nH]ncc34)C[C@@H]21"
value_reported = "< 6.00"

[[record]]
molecule = "O[C@@]1(c2cc(Cl)cc3[nH]ncc23)C[C@H]2C[C@H]2C1"
value_reported = "6.00 to 6.30"

[[record]]
molecule = "CS(=O)(=O)NC1[C@H]2CN(c3cc(Cl)cc4[nH]ncc34)C[C@@H]12 (stereo partly drawn)"
value_reported = "< 6.00"

[[record]]
molecule = "CS(=O)(=O)N1C[C@@H]2C[C@@](O)(c3cc(Cl)cc4[nH]ncc34)C[C@@H]2C1"
value_reported = "6.30 to 7.00"


Now let's try a different one.
// query I am curious: what pIC50 value has been reported for CC1(C)C2CN(c3cc(Cl)cc4[nH]ncc34)CC2CN1C(=O)c1ccc(C#N)cc1 (stereo not drawn) ?
// result < 6.00
